# target.under.test: human Y2 receptor (human) (UniProt P49146)
# Sequence (P49146 whole entry): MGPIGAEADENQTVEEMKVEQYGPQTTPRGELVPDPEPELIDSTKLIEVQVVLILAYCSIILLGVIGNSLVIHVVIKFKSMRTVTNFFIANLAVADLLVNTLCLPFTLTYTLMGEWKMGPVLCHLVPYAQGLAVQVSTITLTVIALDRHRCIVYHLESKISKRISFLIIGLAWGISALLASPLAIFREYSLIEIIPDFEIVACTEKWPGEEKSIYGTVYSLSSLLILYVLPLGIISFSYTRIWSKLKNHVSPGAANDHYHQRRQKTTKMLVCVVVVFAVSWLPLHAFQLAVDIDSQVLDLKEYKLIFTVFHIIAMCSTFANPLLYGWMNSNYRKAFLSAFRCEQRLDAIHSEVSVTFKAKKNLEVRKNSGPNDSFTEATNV
# assay.method.text: cell-based or functional assay
Starred links: 1 amine or outer side, 2 acyl side, 3 side chain; linkers in the order of their positions; H or OH if unused. Non-standard residues stand in square brackets, D forms with d. Primed or numbered codes have the meaning given here. *: point of attachment. Ser(Me)(3) = methylserine, COC[C@H](N[*:1])C(=O)[*:2]; Cha = N[C@@H](CC1CCCCC1)C(=O)O; Isobutyryl = CC(C)C(=O)*; Abu = CC[C@H](N)C(=O)O; Aib = CC(C)(N)C(=O)O
GBA EC50 Ratio (vs PYY(3-36)), [35S]GTPγS listing for selected binders.

Isobutyryl-R[Abu][Cha][Cha]NQ[Aib]TRQR[Cha]-NH2 (SMILES CC[C@H](NC(=O)[C@H](CCCNC(=N)N)NC(=O)C(C)C)C(=O)N[C@@H](CC1CCCCC1)C(=O)N[C@@H](CC1CCCCC1)C(=O)N[C@@H](CC(N)=O)C(=O)N[C@@H](CCC(N)=O)C(=O)NC(C)(C)C(=O)N[C@H](C(=O)N[C@@H](CCCNC(=N)N)C(=O)N[C@@H](CCC(N)=O)C(=O)N[C@@H](CCCNC(=N)N)C(=O)N[C@@H](CC1CCCCC1)C(N)=O)[C@@H](C)O) [Isobutanoyl-[Abu26, Cha27,28,36, Gln30, Aib31]-PYY(25-36)]    22

Continue with the binder presented below.
Problem: // GBA EC50 Ratio (vs PYY(3-36)), [35S]GTPγS lookup, key: Ac-[Ser(Me)(3)][dP]R[Abu][Cha][Cha]NL[Aib]TRQR[Cha]-NH2 (SMILES CC[C@H](NC(=O)[C@H](CCCNC(=N)N)NC(=O)[C@H]1CCCN1C(=O)[C@H](COC)NC(C)=O)C(=O)N[C@@H](CC1CCCCC1)C(=O)N[C@@H](CC1CCCCC1)C(=O)N[C@@H](CC(N)=O)C(=O)N[C@@H](CC(C)C)C(=O)NC(C)(C)C(=O)N[C@H](C(=O)N[C@@H](CCCNC(=N)N)C(=O)N[C@@H](CCC(N)=O)C(=O)N[C@@H](CCCNC(=N)N)C(=O)N[C@@H](CC1CCCCC1)C(N)=O)[C@@H](C)O) [Ac-[Ser(Me)23, D-Pro24, Abu26, Cha27,28,36, Aib31]-PYY(23-36)]
Solution: 3.8

The reported numbers originate from patent US20120172293A1.
